- Subject of test: IDO1 (Homo sapiens (Human), UniProt P14902)
- Protocol summary: IDO1 Cellular Assay in Hela Cells Stimulated with IFNγ
- Assay type: cell-based
- Condition description: about 48 hours, read-out: IDO1 HELA Cell Assay, IC50
- Sequence (P14902 whole entry): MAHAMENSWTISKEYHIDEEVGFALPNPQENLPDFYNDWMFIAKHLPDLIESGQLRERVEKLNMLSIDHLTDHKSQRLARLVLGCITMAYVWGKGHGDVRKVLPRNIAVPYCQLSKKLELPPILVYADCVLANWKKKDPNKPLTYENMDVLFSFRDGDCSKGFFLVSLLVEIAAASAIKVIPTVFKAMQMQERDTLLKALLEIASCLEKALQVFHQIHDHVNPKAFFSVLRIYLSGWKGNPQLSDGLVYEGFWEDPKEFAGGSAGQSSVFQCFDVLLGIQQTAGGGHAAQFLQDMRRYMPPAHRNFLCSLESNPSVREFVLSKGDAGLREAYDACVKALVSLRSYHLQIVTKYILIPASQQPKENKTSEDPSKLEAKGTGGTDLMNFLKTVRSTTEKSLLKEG
pIC50: −log10 of the molar value.
Label rule, in plain words: pIC50 of 7 and up is satisfied, under 7 is not satisfied.

# Molecule, Category label
rows = [
    ("CS(=N)(=O)CCCNc1nonc1/C(=N/O)N[C@H]1Cc2ccc(F)cc21 (single isomer, unassigned) [Example 25]", "satisfied"),
    ("CS(=N)(=O)NCCOc1nonc1/C(=N/O)N[C@H]1Cc2ccc(F)cc21 (single isomer, unassigned) [Example 51]", "not satisfied"),
    ("CN=S(C)(=O)CCNc1nonc1/C(=N/O)N[C@H]1Cc2ccc(F)cc21 (single isomer, unassigned) [Example 35]", "satisfied"),
    ("CS(=N)(=O)N[C@H]1C[C@@H](Oc2nonc2/C(=N\\O)N[C@@H]2Cc3ccc(F)cc32)C1 (single isomer, unassigned) [Example 62]", "not satisfied"),
    ("N=S(N)(=O)CCCNc1nonc1/C(=N\\O)NC1Cc2ccc(F)cc21 (stereo in doubt)", "satisfied"),
]

---

- Subject of test: IDO1 (Homo sapiens (Human))
- Protocol summary: IDO1 Human Whole Blood Assay
- Type: cell-based
- Condition description: LPS and IFNγ, 18 h, kynurenine by LC/MS/MS
Threshold 800 nM: IC50 strictly smaller gives 1, otherwise -1.

# Molecule, Category label
rows = [
    ("N=S1(=O)CC(Nc2nonc2/C(=N/O)N[C@H]2Cc3ccc(F)cc32)C1 (single isomer, unassigned) [Example 4]", -1),
    ("CS(=N)(=O)N1CC(Oc2nonc2/C(=N/O)N[C@H]2Cc3ccc(F)cc32)C1 (single isomer, unassigned)", 1),
    ("C[S@@](=N)(=O)CCNc1nonc1/C(=N/O)N[C@H]1Cc2ccc(F)cc21", 1),
    ("CS(=O)(/C=C/Nc1nonc1/C(=N/O)N[C@H]1Cc2ccc(F)cc21)=NC#N (stereo partly drawn)", -1),
    ("CS(=O)(CCNc1nonc1/C(=N/O)N[C@H]1Cc2ccc(F)cc21)=NC(N)=O (stereo partly drawn)", -1),
    ("C[S@](=N)(=O)CCNc1nonc1/C(=N/O)N[C@H]1Cc2ccc(F)cc21", 1),
    ("N=S1(=O)CC(CNc2nonc2/C(=N/O)N[C@H]2Cc3ccc(F)cc32)C1 (single isomer, unassigned) [Example 5]", 1),
    ("CS(=N)(=O)N1CCO[C@@H](CNc2nonc2/C(=N\\O)N[C@@H]2Cc3ccc(F)cc32)C1 (single isomer, unassigned)", -1),
    ("CS(=O)(CCNc1nonc1/C(=N/O)N[C@H]1Cc2ccc(F)cc21)=NC#N (stereo partly drawn)", 1),
    ("N=S1(=O)CC(CNc2nonc2/C(=N/O)N[C@H]2Cc3ccc(F)cc32)C1 (single isomer, unassigned) [Example 6]", 1),
    ("CS(=N)(=O)N1CC(O)(CNc2nonc2/C(=N/O)N[C@H]2Cc3ccc(F)cc32)C1 (single isomer, unassigned)", -1),
    ("N=S1(=O)CC(Nc2nonc2/C(=N/O)N[C@H]2Cc3ccc(F)cc32)C1 (single isomer, unassigned) [Example 3]", -1),
]

---

- Subject of test: IDO1 (Homo sapiens (Human))
- Protocol summary: IDO1 Enzyme Assay
- Type: biochemical
- Condition description: HIS-tagged recombinant IDO1, fluorescence readout
- Sequence (P14902 whole entry, species assumed): as the sequence (P14902 whole entry) above
Label condition met when IC50 < 0.09 µM; otherwise condition not met.

# Compound, Category label
rows = [
    ("CS(=N)(=O)CCOCCNc1nonc1/C(=N/O)N[C@H]1Cc2ccc(F)cc21 (single isomer, unassigned) [Example 48]", "condition not met"),
    ("CS(=N)(=O)CCC(O)CNc1nonc1/C(=N\\O)N[C@@H]1Cc2ccc(F)cc21 (single isomer, unassigned) [Example 80]", "condition not met"),
    ("CN(CCNc1nonc1/C(=N\\O)N[C@H]1Cc2ccc(F)cc21)S(C)(=N)=O (stereo partly drawn) [Example 54]", "condition not met"),
    ("N=S1(=O)CC(CNc2nonc2/C(=N/O)N[C@H]2Cc3ccc(F)cc32)C1 (single isomer, unassigned) [Example 5]", "condition not met"),
    ("CS(=N)(=O)CCC(O)CNc1nonc1/C(=N\\O)N[C@@H]1Cc2ccc(F)cc21 (single isomer, unassigned) [Example 81]", "condition not met"),
    ("CS(=N)(=O)N1CCO[C@@H](CNc2nonc2/C(=N\\O)N[C@@H]2Cc3ccc(F)cc32)C1 (single isomer, unassigned) [Example 63]", "condition not met"),
    ("CS(=N)(=O)NCCCCNc1nonc1/C(=N/O)N[C@H]1Cc2ccc(F)cc21 (stereo partly drawn) [Example 53]", "condition met"),
    ("CN=S(C)(=O)NCCNc1nonc1/C(=N\\O)N[C@H]1Cc2ccc(F)cc21 (single isomer, unassigned) [Example 67]", "condition met"),
    ("CS(=N)(=O)N1CC(CNc2nonc2/C(=N\\O)N[C@@H]2Cc3ccc(F)cc32)C1 (single isomer, unassigned) [Example 71]", "condition met"),
    ("CS(=N)(=O)N1CC(Oc2nonc2/C(=N/O)N[C@H]2Cc3ccc(F)cc32)C1 (single isomer, unassigned) [Example 41]", "condition not met"),
    ("CS(=O)(CCNc1nonc1/C(=N\\O)N[C@H]1Cc2ccc(F)cc21)=NCCO (single isomer, unassigned) [Example 57]", "condition met"),
    ("CS(=N)(=O)N1CC(O)(CNc2nonc2/C(=N/O)N[C@H]2Cc3ccc(F)cc32)C1 (single isomer, unassigned) [Example 36]", "condition met"),
    ("C[S@@](=N)(=O)CCCOc1nonc1/C(=N/O)NC1Cc2ccc(F)cc21 (single isomer, unassigned) [Example 30]", "condition not met"),
    ("CS(=O)(/C=C/Nc1nonc1/C(=N/O)N[C@H]1Cc2ccc(F)cc21)=NC#N (stereo partly drawn) [Example 15]", "condition not met"),
    ("CS(=N)(=O)N1CC2(CC(Nc3nonc3/C(=N\\O)N[C@@H]3Cc4ccc(F)cc43)C2)C1 (single isomer, unassigned) [Example 76]", "condition met"),
    ("CS(=N)(=O)CCC(O)CNc1nonc1/C(=N\\O)N[C@@H]1Cc2ccc(F)cc21 (single isomer, unassigned) [Example 79]", "condition met"),
    ("C[S@](=N)(=O)CCNc1nonc1/C(=N/O)N[C@H]1Cc2ccc(F)cc21 [Example 1]", "condition met"),
    ("CS(=N)(=O)CCCCOc1nonc1/C(=N/O)N[C@H]1Cc2ccc(F)cc21 (single isomer, unassigned) [Example 32]", "condition not met"),
    ("CS(=N)(=O)N1CCC(Nc2nonc2/C(=N/O)N[C@H]2Cc3ccc(F)cc32)C1 (single isomer, unassigned) [Example 43]", "condition not met"),
    ("CC(O)CS(=N)(=O)CCNc1nonc1/C(=N\\O)N[C@@H]1Cc2ccc(F)cc21 (single isomer, unassigned) [Example 87]", "condition met"),
]

---

- Subject of test: IDO1 (Homo sapiens (Human))
- Protocol summary: IDO1 Enzyme Assay
- Assay type: biochemical
- Condition description: HIS-tagged recombinant IDO1, fluorescence readout
Quick list: IC50 per entry.

# Molecule, IC50 (nM)
records = [
    ("CS(=N)(=O)N1CC(CNc2nonc2/C(=N\\O)N[C@@H]2Cc3ccc(F)cc32)C1 (single isomer, unassigned) [Example 70]", 79.7),
    ("CN=S(C)(=O)CCNc1nonc1/C(=N/O)N[C@H]1Cc2ccc(F)cc21 (single isomer, unassigned) [Example 35]", 81.6),
    ("CS(=N)(=O)N[C@H]1C[C@@H](Oc2nonc2/C(=N\\O)N[C@@H]2Cc3ccc(F)cc32)C1 (single isomer, unassigned) [Example 61]", 81.6),
    ("CS(=N)(=O)CC12CC(Nc3nonc3/C(=N\\O)N[C@@H]3Cc4ccc(F)cc43)(C1)C2 (single isomer, unassigned) [Example 83]", 81.5),
]

---

Reported IC50 values for the following compounds.
- Subject of test: IDO1 (Homo sapiens (Human), UniProt P14902)
- Protocol summary: IDO1 Enzyme Assay
- Type: biochemical
- Condition description: HIS-tagged recombinant IDO1, fluorescence readout
Result type: IC50 (nM)

# Compound, Subject of test, Uom, Value observed
measured = [
    ("CS(=N)(=O)NCC(O)CNc1nonc1/C(=N\\O)N[C@H]1Cc2ccc(F)cc21 (single isomer, unassigned) [Example 56]", "IDO1 (Homo sapiens (Human), UniProt P14902)", "nM", 107),
    ("C[S@](=N)(=O)C1CC(Nc2nonc2/C(=N\\O)N[C@@H]2Cc3ccc(F)cc32)C1 (single isomer, unassigned) [Example 73]", "IDO1 (Homo sapiens (Human), UniProt P14902)", "nM", 63.9),
    ("CS(=O)(CCNc1nonc1/C(=N\\O)N[C@H]1Cc2ccc(F)cc21)=NCCO (single isomer, unassigned) [Example 58]", "IDO1 (Homo sapiens (Human), UniProt P14902)", "nM", 125),
    ("CS(=N)(=O)NCCNc1nonc1/C(=N/O)N[C@H]1Cc2ccc(F)cc21 (some centres unmarked) [Example 11]", "IDO1 (Homo sapiens (Human), UniProt P14902)", "nM", 38.7),
    ("CS(=N)(=O)CC12CC(Nc3nonc3/C(=N\\O)N[C@@H]3Cc4ccc(F)cc43)(C1)C2 (single isomer, unassigned) [Example 82]", "IDO1 (Homo sapiens (Human), UniProt P14902)", "nM", 91.7),
    ("CN=S(C)(=O)NCCNc1nonc1/C(=N\\O)N[C@H]1Cc2ccc(F)cc21 (single isomer, unassigned) [Example 66]", "IDO1 (Homo sapiens (Human), UniProt P14902)", "nM", 80.8),
    ("N=S(=O)(CCO)CCNc1nonc1/C(=N/O)N[C@H]1Cc2ccc(F)cc21 (single isomer, unassigned) [Example 8]", "IDO1 (Homo sapiens (Human), UniProt P14902)", "nM", 43.5),
    ("CS(=N)(=O)N1CC(Oc2nonc2/C(=N/O)N[C@H]2Cc3ccc(F)cc32)C1 (single isomer, unassigned) [Example 42]", "IDO1 (Homo sapiens (Human), UniProt P14902)", "nM", 56.8),
]
